# assay overview: in vitro
# setup conditions: human, THLE-2 cells
# Description: Antiproliferative activity against human THLE-2 cells assessed as inhibition of cell growth incubated for 72 hrs by CCK-8 assay
The label Satisfied is reserved for IC50 at 72 h strictly under 10 µM; Not satisfied covers values equal to or above it.

Incoming: Item `Cc1ccc(-c2cc3[nH]cc(C(=O)N4CCC(N)CC4)c3cc2-c2ccc(C#N)cc2)c(F)c1` : IC50 at 72 h beneath 10 µM, strictly?
Outgoing: Not satisfied

Incoming: Could you please tell me whether IC50 at 72 h recorded for `Cc1ccc(-c2cc3c(cc2-c2ccc(C#N)cc2)c(C(=O)N2CCC(N)CC2)cn3C)cc1` is less than 10 µM?
Outgoing: Satisfied

Incoming: Lab note: IC50 at 72 h threshold 10 µM. Does this compound come in strictly under it? `Cc1ccc(-c2cc3[nH]cc(C(=O)N4CCC(N)CC4)c3cc2-c2ccc(C#N)cc2)cc1`
Outgoing: Not satisfied

Incoming: Regarding `Cc1ccc(-c2cc3[nH]cc(C(=O)N4CCC(N)CC4)c3cc2-c2ccc(C#N)cc2)cc1F` , kindly confirm whether its IC50 at 72 h is beneath 10 µM.
Outgoing: Not satisfied

Incoming: Here's an entry: `Cc1ccc(-c2cc3[nH]cc(C(=O)N4CCC(N)CC4)c3cc2-c2ccc(C#N)c(F)c2)cc1` . Is its IC50 at 72 h below 10 µM?
Outgoing: Not satisfied

Incoming: Criterion: IC50 at 72 h strictly below 10 µM. Is it met by `Cc1ccc(-c2cc3occ(CN4CCC[C@H](N)C4)c3cc2-c2ccc(C#N)cc2)cc1` ?
Outgoing: Satisfied

Incoming: Is it true that IC50 at 72 h reported for `Cc1ccc(-c2cc3c(cc2-c2ccc(C#N)cc2)c(C(=O)N2CCC(N)CC2)cn3S(=O)(=O)c2ccc(F)cc2)cc1` is less than 10 µM?
Outgoing: Satisfied

Incoming: I wonder whether `Cc1ccc(-c2cc3[nH]cc(C(=O)N4CCC[C@H](N)C4)c3cc2-c2ccc(C#N)cc2)cc1` has IC50 at 72 h below 10 µM. Can you tell?
Outgoing: Not satisfied

###

# assay overview: Oral bioavailability in Sprague-Dawley rat at 10 mg/kg by LC-MS/MS analysis
# Format: ADME, organism-based
# setup conditions: in vivo
measurement type: bioavailability (%)
Write it as a number; the unit % goes unstated.

Incoming: Which bioavailability is reported for this molecule? `Cc1ccc(-c2cc3c(cc2-c2ccc(C#N)cc2)c(C(=O)N2CCC(N)CC2)cn3S(=O)(=O)c2ccc(F)cc2)cc1`
Outgoing: 7.49

###

# tested system: UniProtKB O60341
Label true (1) when IC50 is strictly below 300 nM; at or above that, label false (0).

Incoming: Given `Cc1ccc(-c2cc3c(cc2-c2ccc(C(N)=O)cc2)c(C(=O)NC2CCNCC2)cn3C)cc1` , is recorded IC50 strictly lower than 300 nM?
Outgoing: false (0)

Incoming: Answer whether the molecule `Cc1ccc(-c2cc3[nH]cc(C(=O)N4CCC(N)CC4)c3cc2-c2ccc(O)cc2)cc1` has IC50 strictly less than 300 nM
Outgoing: false (0)

Incoming: # check: IC50 < 300 nM for `Cc1cc(C)cc(-c2cc3[nH]cc(C(=O)N4CCC(N)CC4)c3cc2-c2ccc(C#N)cc2)c1`
Outgoing: true (1)

Incoming: Please determine if `Cc1ccc(-c2cc3[nH]cc(C(=O)N4CCNCC4)c3cc2-c2ccc(C#N)cc2)cc1` is below 300 nM in terms of IC50.
Outgoing: true (1)

Incoming: State whether 300 nM exceeds IC50 recorded for `Cc1ccc(-c2cc3[nH]cc(C(=O)N4CCC(N)CC4)c3cc2-c2ccc(C#N)c(F)c2)cc1` .
Outgoing: true (1)

Incoming: Find out if reported IC50 for `Cc1ccc(-c2cc3[nH]cc(C(=O)N4CCC(N)CC4)c3cc2-c2ccc(C#N)cc2)cc1` is less than 300 nM
Outgoing: true (1)

Incoming: Consider the molecule `Cc1ccc(-c2cc3c(cc2-c2ccc(C#N)cc2)c(C(=O)N2CCC(N)CC2)cn3Cc2cccc(C#N)c2)cc1` . Is its IC50 strictly less than 300 nM?
Outgoing: true (1)

Incoming: Quick check: IC50 of `N#Cc1ccc(-c2cc3c(C(=O)N4CCC(N)CC4)c[nH]c3cc2-c2ccc(C(F)(F)F)cc2)cc1` under 300 nM?
Outgoing: false (0)

Incoming: Report whether reported IC50 is lower than 300 nM (strictly) for `Cc1ccc(-c2cc3c(cc2-c2ccc(C#N)cc2)c(C(=O)N2CCC(N)CC2)cn3Cc2ccc(Br)cc2)cc1`
Outgoing: false (0)

Incoming: Just wondering, is IC50 of `Cc1ccc(-c2cc3c(cc2-c2ccc(C#N)cc2)c(C(=O)N2CCC(N)CC2)cn3Cc2cccc(Br)c2)cc1` below 300 nM?
Outgoing: false (0)

Incoming: Would you kindly verify if IC50 of `Cc1ccc(Cn2cc(C(=O)N3CCC(N)CC3)c3cc(-c4ccc(C#N)cc4)c(-c4ccc(C)cc4)cc32)cc1` is strictly less than 300 nM?
Outgoing: false (0)

Incoming: I wonder whether `Cc1ccc(-c2cc3c(cc2-c2ccc(C#N)cc2)c(C(=O)N2CCC(N)CC2)cn3Cc2ccc(Cl)cc2)cc1` has IC50 below 300 nM. Can you tell?
Outgoing: false (0)

Incoming: In the record for Cc1ccc(-c2cc3[nH]cc(C(=O)NC4CCCNC4)c3cc2-c2ccc(C#N)cc2)cc1 (configuration not stated) , is IC50 less than 300 nM?
Outgoing: false (0)

Incoming: Item `Cc1ccc(-c2cc3[nH]cc(C(=O)N4CCC[C@@H](N)C4)c3cc2-c2ccc(C#N)cc2)cc1` : IC50 beneath 300 nM, strictly?
Outgoing: false (0)

Incoming: State whether 300 nM exceeds IC50 recorded for Cc1ccc(-c2cc3[nH]cc(C(=O)NCC4CCNC4)c3cc2-c2ccc(C#N)cc2)cc1 (configuration not stated) .
Outgoing: true (1)

Incoming: Strictly below 300 nM in IC50? `Cc1ccc(-c2cc3[nH]cc(C(=O)NC4CCNCC4)c3cc2-c2ccc(C#N)cc2)cc1`
Outgoing: false (0)

Incoming: Hello, is IC50 of the following molecule strictly smaller than 300 nM? `Cc1ccc(-c2cc3c(cc2-c2ccc(C#N)cc2)c(C(=O)N2CCC(N)CC2)cn3C)cc1`
Outgoing: true (1)

###

Provide the reported half-life of each item.
# assay overview: Half life in human liver microsomes measured upto 60 mins in presence of NADPH by LC/MS/MS analysis
# Format: ADME, Microsome
Answer in h, number only, no unit symbol.

Incoming: # input compound: `Cc1ccc(-c2cc3occ(CN4CCC[C@H](N)C4)c3cc2-c2ccc(C#N)cc2)cc1` ; wanted: its half-life
Outgoing: 0.943

Incoming: Reported half-life, compound `Cc1ccc(-c2cc3c(cc2-c2ccc(C#N)cc2)c(C(=O)N2CCC(N)CC2)cn3S(=O)(=O)c2ccc(F)cc2)cc1` : ____
Outgoing: 2.42

###

Sequence of the target: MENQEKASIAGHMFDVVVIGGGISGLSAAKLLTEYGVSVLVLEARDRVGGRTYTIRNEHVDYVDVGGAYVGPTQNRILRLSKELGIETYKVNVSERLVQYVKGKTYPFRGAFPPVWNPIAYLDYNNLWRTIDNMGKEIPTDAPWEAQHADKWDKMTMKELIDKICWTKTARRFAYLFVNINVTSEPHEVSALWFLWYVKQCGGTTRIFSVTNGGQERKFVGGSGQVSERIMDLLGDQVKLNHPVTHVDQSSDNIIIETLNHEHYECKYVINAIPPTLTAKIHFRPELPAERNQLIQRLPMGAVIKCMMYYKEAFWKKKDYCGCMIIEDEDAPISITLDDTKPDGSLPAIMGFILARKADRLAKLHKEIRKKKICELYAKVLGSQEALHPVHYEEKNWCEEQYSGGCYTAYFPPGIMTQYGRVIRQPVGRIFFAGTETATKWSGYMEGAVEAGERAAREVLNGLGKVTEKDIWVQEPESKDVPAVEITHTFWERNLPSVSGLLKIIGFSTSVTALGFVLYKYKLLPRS
pIC50: −log10 of the molar value.
measurement type: pIC50

Incoming: Tell me the measured pIC50 of `Cc1ccc(-c2cc3occ(CN4CCC[C@H](N)C4)c3cc2-c2ccc(C#N)cc2)cc1` , please.
Outgoing: < 4.70

###

Kindly supply the reported inhibition at 20 min, 10 µM values for the records listed here.
# tested system: UniProt:P05177
# Sequence (P05177 whole entry): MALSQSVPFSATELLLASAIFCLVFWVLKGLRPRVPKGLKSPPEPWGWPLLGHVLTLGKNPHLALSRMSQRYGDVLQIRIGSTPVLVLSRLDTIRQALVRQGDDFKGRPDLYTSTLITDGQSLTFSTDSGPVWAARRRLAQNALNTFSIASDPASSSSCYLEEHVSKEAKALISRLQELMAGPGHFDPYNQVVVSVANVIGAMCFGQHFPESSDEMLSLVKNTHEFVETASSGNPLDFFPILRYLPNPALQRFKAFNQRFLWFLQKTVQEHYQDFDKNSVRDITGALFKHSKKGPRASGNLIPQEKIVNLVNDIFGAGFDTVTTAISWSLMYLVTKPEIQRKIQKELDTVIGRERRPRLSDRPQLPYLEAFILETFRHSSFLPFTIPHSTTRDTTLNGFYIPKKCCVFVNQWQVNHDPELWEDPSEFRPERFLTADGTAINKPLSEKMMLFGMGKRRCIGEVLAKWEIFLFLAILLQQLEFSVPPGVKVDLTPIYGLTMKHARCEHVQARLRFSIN
# assay overview: Inhibition of CYP1A2 (unknown origin) at 10 uM incubated for 20 mins in presence of NADPH by LC/MS/MS analysis relative to control
# Assay type: ADME
Quick note: give the figure in %, leave out the unit.

Incoming: What inhibition at 20 min, 10 µM value was documented for this molecule, `Cc1ccc(-c2cc3occ(CN4CCC[C@H](N)C4)c3cc2-c2ccc(C#N)cc2)cc1` ?
Outgoing: 4.9

Incoming: Recorded inhibition at 20 min, 10 µM for `Cc1ccc(-c2cc3c(cc2-c2ccc(C#N)cc2)c(C(=O)N2CCC(N)CC2)cn3S(=O)(=O)c2ccc(F)cc2)cc1` , please?
Outgoing: 0
